# System: male ICR mice
# test_summary: Toxicity test (mouse acute toxicity, minimum lethal dose)
# Assay type: in vivo
# particulars: oral (po), male ICR mice fasted overnight, survival 14 days
readout_type: mouse acute toxicity [lethal dose] (minimum lethal dose)

# annotated cases, reported mouse acute toxicity [lethal dose] (minimum lethal dose) shown
Query :: Entry under review: Nc1nccc(NCC2(CO)CC(CCc3ccccc3)C2)n1 (stereo not shown) . Reported mouse acute toxicity [lethal dose] (minimum lethal dose)?
Result :: > 500 mg/kg

Query :: Entry under review: Nc1nc(Cl)c(N)c(NCC2(CO)CC2)n1 . Reported mouse acute toxicity [lethal dose] (minimum lethal dose)?
Result :: > 1000 mg/kg

Query :: Entry under review: Cl.Cl.Nc1nc(Cl)c(N)c(NCCO)n1 . Reported mouse acute toxicity [lethal dose] (minimum lethal dose)?
Result :: > 1000 mg/kg

***
Query :: Entry under review: Nc1nc(Cl)cc(NCC2(CO)CCCC2)n1 . Reported mouse acute toxicity [lethal dose] (minimum lethal dose)?
Result :: > 500 mg/kg

Query :: Entry under review: Nc1nc(O)c(N)c(NCC2(CO)CC2)n1 . Reported mouse acute toxicity [lethal dose] (minimum lethal dose)?
Result :: > 1000 mg/kg

Query :: Entry under review: Nc1nc(Cl)c(N)c(NCCCO)n1 . Reported mouse acute toxicity [lethal dose] (minimum lethal dose)?
Result :: > 1000 mg/kg

Query :: Entry under review: Nc1nc(Cl)c(N)c(NCC2(CO)CCC2)n1 . Reported mouse acute toxicity [lethal dose] (minimum lethal dose)?
Result :: > 500 mg/kg

Query :: Entry under review: Nc1nc(Cl)cc(NCC2(CO)CC(OCc3ccccc3)C2)n1 (stereo not shown) . Reported mouse acute toxicity [lethal dose] (minimum lethal dose)?
Result :: > 500 mg/kg

Query :: Entry under review: Nc1nc(Cl)cc(NCC2(CO)CC(c3ccccc3)C2)n1 (stereo not shown) . Reported mouse acute toxicity [lethal dose] (minimum lethal dose)?
Result :: > 500 mg/kg

Query :: Entry under review: Nc1ncc(Br)c(NCC2(CO)CCC2)n1 . Reported mouse acute toxicity [lethal dose] (minimum lethal dose)?
Result :: > 500 mg/kg

----------
# System: rotavirus SA-11 strain
# test_summary: Determination of antiviral activity (50% plaque reduction method)
# Format: cell-based, rotavirus SA-11 (in CV-1 green monkey kidney cells)
# particulars: ED50 CV-1 cells / ID50 rotavirus SA-11
readout_type: antiviral index (ED50 /ID50)
Please respond with just the number, no unit label.

# annotated cases, reported antiviral index (ED50 /ID50) shown
Query :: Which antiviral index (ED50 /ID50) is reported with rotavirus SA-11 strain for this entry: Nc1nc(Cl)c(N)c(NCC2(CO)CCC2)n1 [compound 59] ?
Result :: 2

Query :: Which antiviral index (ED50 /ID50) is reported with rotavirus SA-11 strain for this entry: CCC(CC)(CO)CNc1nc(N)nc(Cl)c1N [compound 25] ?
Result :: 150.0

Query :: Which antiviral index (ED50 /ID50) is reported with rotavirus SA-11 strain for this entry: CCC(CC)(CO)CNc1cc(Cl)nc(N)n1 [compound 23] ?
Result :: 23

Consider the additional compound presented here.
Query :: Which antiviral index (ED50 /ID50) is reported with rotavirus SA-11 strain for this entry: CC(C)(CO)CNc1nc(N)nc(Cl)c1N [compound 24] ?
Result :: 51.1

----------
In this section we review reported CC50 at 48 h values for a set of compounds.
# test_summary: Determination of cytotoxicity (50% cell growth inhibition effect)
# Type: cell-based, green monkey
# particulars: monkey; CV-1 cells, 2 days, cell count; read-out: ED50 (50% cell growth inhibition effect dose), CV-1 cells
Just the number in µg/mL, nothing appended.

Query :: Entry under review: CCC(CC)(CO)CNc1cc(Cl)nc(N)n1 . Reported CC50 at 48 h?
Result :: 80

Query :: Entry under review: CC(C)(CO)CNc1nc(N)nc(Cl)c1N . Reported CC50 at 48 h?
Result :: 56.2

Query :: Entry under review: Nc1nc(Cl)c(N)c(NCC2(CO)CCC2)n1 . Reported CC50 at 48 h?
Result :: 3.6

***
Query :: Entry under review: CCC(CC)(CO)CNc1nc(N)nc(Cl)c1N . Reported CC50 at 48 h?
Result :: 30

----------
# Test system: rotavirus SA-11 strain
# test_summary: Determination of antiviral activity (50% plaque reduction method)
# Format: cell-based, rotavirus SA-11 (in CV-1 green monkey kidney cells)
# particulars: ED50 CV-1 cells / ID50 rotavirus SA-11
In this section we review reported antiviral index (ED50 /ID50) values for a set of compounds.

# annotated cases, reported antiviral index (ED50 /ID50) shown
Query :: Entry under review: Nc1nc(Cl)c(N)c(NCCCO)n1 [compound No. 113] . Reported antiviral index (ED50 /ID50)?
Result :: > 38

Query :: Entry under review: Nc1nc(Cl)c(N)c(NCC2(CO)CC2)n1 [compound 58] . Reported antiviral index (ED50 /ID50)?
Result :: > 67

***
Query :: Entry under review: CC(C)(CO)CNc1cc(Cl)nc(N)n1 [compound No. 20] . Reported antiviral index (ED50 /ID50)?
Result :: > 9.5

Query :: Entry under review: Nc1nc(Cl)cc(NCC2(O)CCC2)n1 [compound 28] . Reported antiviral index (ED50 /ID50)?
Result :: > 10

----------
# test_summary: Determination of cytotoxicity (50% cell growth inhibition effect)
# Assay type: cell-based, green monkey
# particulars: monkey; CV-1 cells, 2 days, cell count; read-out: ED50 (50% cell growth inhibition effect dose), CV-1 cells
readout_type: CC50 at 48 h

Query :: Entry under review: Nc1nc(Cl)cc(NCC2(O)CCC2)n1 [compound 28] . Reported CC50 at 48 h?
Result :: > 30 µg/mL

Query :: Entry under review: Nc1nc(Cl)c(N)c(NCCCO)n1 [compound No. 113] . Reported CC50 at 48 h?
Result :: > 100 µg/mL

Query :: Entry under review: CC(C)(CO)CNc1cc(Cl)nc(N)n1 [compound No. 20] . Reported CC50 at 48 h?
Result :: > 1 µg/mL

Consider the additional molecule presented here.
Query :: Entry under review: Nc1nc(Cl)c(N)c(NCC2(CO)CC2)n1 [compound 58] . Reported CC50 at 48 h?
Result :: > 100 µg/mL
